molecular target: human OX2 receptors (Homo sapiens); construct: expressed in transfected cells; host or cells: HEK-293 cells; experiment: antagonistic activity against human OX2 receptor, calcium fluorimetry (Fluo-4NW) in transfected HEK-293 cells; assay type: cell-based; settings: HEK-293 cells transfected with human recombinant OX2, activated with orexin-B 10 nM; pKb = co-logarithm of apparent dissociation constant (modified Cheng Prusoff)
Sequence (O43614 whole entry): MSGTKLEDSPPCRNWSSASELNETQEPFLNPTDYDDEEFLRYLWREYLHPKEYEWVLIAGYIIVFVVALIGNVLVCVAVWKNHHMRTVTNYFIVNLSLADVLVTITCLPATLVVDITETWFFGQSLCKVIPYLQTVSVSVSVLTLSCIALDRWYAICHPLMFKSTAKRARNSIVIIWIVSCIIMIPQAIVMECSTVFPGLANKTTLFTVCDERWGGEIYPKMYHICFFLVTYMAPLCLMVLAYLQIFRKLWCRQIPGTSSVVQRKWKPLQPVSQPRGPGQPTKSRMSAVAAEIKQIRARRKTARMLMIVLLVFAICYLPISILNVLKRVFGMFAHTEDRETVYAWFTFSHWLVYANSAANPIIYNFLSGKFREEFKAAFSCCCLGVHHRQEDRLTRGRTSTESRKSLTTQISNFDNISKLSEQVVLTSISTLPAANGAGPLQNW
# Lookup of reported Kb keyed by entry
Please answer using the number first and the unit second.

Study these solved cases before continuing.
MOLECULE	TEST_READOUT	RESULT
N#Cc1ccc(-c2ncccn2)c(C(=O)N2[C@H](CNc3cc(C(F)(F)F)ccn3)CC[C@H]3C[C@H]32)c1 [Compound 1h]	Kb	0.01 µM
Cc1nc(C(=O)N2[C@H](CNc3ccc(C(F)(F)F)cn3)CC[C@@H]3C[C@@H]32)c(-c2ccccc2)s1 [Compound 5a]	Kb	0.0501 µM
Cc1nc(C(=O)N2[C@H](CNc3ccc(Cl)cn3)CC[C@H]3C[C@H]32)c(-c2ccccc2)s1 [Compound 2b]	Kb	0.0158 µM

Reading of Kb for N#Cc1ccc(-c2ncccn2)c(C(=O)N2[C@H](CNc3ccc(C(F)(F)F)cn3)CC[C@H]3C[C@H]32)c1 [Compound 1b] with human OX2 receptors (Homo sapiens): 0.01 µM

The molecule O=C(c1cc(Cl)ccc1-c1ncccn1)N1[C@H](COc2ccc(C(F)(F)F)cn2)CC[C@H]2C[C@H]21 [Compound 3d] on human OX2 receptors (Homo sapiens): Kb was 0.02 µM

Known value: human OX2 receptors (Homo sapiens) Kb of the molecule O=C(c1cc(Cl)ccc1-c1ncccn1)N1[C@H](COc2ccc(F)cn2)CC[C@H]2C[C@H]21 [Compound 3c] equals 0.0631 µM

# lookup: Cc1ccc(-c2ncccn2)c(C(=O)N2[C@H](COc3ccc(Cl)cn3)CC[C@H]3C[C@H]32)c1 [Compound 3f] on human OX2 receptors (Homo sapiens), Kb = 0.0501 µM

Assay human OX2 receptors (Homo sapiens), sample O=C(c1cc(Cl)ccc1-c1ncccn1)N1[C@H](CNc2cc(C(F)(F)F)ccn2)CC[C@H]2C[C@H]21 [Compound 1a] , Kb read: 0.00398 µM

----------
Target: human OX1 receptors (Homo sapiens, UniProt O43613)
Construct: expressed in transfected cells; host or cells: CHO cells
Sequence (O43613 1-425): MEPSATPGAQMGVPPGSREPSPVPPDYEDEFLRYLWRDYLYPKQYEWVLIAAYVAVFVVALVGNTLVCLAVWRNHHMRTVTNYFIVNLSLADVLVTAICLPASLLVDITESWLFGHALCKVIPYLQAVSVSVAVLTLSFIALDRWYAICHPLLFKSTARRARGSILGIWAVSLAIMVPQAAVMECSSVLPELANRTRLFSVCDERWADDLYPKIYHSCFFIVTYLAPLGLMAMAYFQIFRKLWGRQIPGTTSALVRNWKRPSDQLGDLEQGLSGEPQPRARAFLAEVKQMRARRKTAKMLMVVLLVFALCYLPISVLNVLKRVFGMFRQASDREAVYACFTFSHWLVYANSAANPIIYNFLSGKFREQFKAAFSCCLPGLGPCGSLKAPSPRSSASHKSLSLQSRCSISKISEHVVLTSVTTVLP
Assay: antagonistic activity against human OX1 receptor, calcium fluorimetry (Fluo-4NW) in transfected CHO cells
Assay type: cell-based
Details: CHO cells transfected with human recombinant OX1, activated with orexin-A 3 nM; pKb = co-logarithm of apparent dissociation constant (modified Cheng Prusoff)
Listed here: items and their measured Kb.
Provide only the numeric value, understood in nM.

COMPOUND	TEST_READOUT	NUMERIC_RESULT
Cc1ccc(-c2ncccn2)c(C(=O)N2[C@H](CNc3nccc(C(F)(F)F)n3)CC[C@H]3C[C@H]32)c1 [Compound 1k]	Kb	2.51
Cc1ccc(-c2ncccn2)c(C(=O)N2[C@H](CNc3cc(C(F)(F)F)ccn3)CC[C@@H]3C[C@@H]32)c1 [Compound 4f]	Kb	6.31
Cc1ccc(-c2ncccn2)c(C(=O)N2[C@H](CNc3ccc(Cl)cn3)CC[C@H]3C[C@H]32)c1 [Compound 1c]	Kb	0.794
O=C(c1cc(Cl)ccc1-c1ncccn1)N1[C@H](CNc2ccc(Cl)cn2)CC[C@H]2C[C@H]21 [Compound 1f]	Kb	0.794
Cc1ccc(-c2ncccn2)c(C(=O)N2[C@H](CNc3ccc(C(F)(F)F)cn3)CC[C@H]3C[C@H]32)c1 [Compound 1d]	Kb	1.26

Fill in: human OX1 receptors (Homo sapiens, UniProt O43613) Kb for O=C(c1cc(Cl)ccc1-c1ncccn1)N1[C@H](COc2ccc(Cl)cn2)CC[C@H]2C[C@H]21 [Compound 3e] = 1

Param item: O=C(c1cc(Cl)ccc1-c1ncccn1)N1[C@H](CNc2cc(C(F)(F)F)ccn2)CC[C@@H]2C[C@@H]21 [Compound 4d] ; param system: human OX1 receptors (Homo sapiens, UniProt O43613); output Kb: 7.94

Record Cc1ccc(-c2ncccn2)c(C(=O)N2[C@H](COc3ccc(Cl)cn3)CC[C@H]3C[C@H]32)c1 [Compound 3f] has human OX1 receptors (Homo sapiens, UniProt O43613) Kb equal to 1

Record for Cc1nc(C(=O)N2[C@H](CNc3ccc(Cl)cn3)CC[C@H]3C[C@H]32)c(-c2ccccc2)s1 [Compound 2b] under target or system human OX1 receptors (Homo sapiens, UniProt O43613): Kb reported as 1.26

Field Kb (human OX1 receptors (Homo sapiens, UniProt O43613)), entry N#Cc1ccc(-c2ncccn2)c(C(=O)N2[C@H](CNc3nccc(C(F)(F)F)n3)CC[C@H]3C[C@H]32)c1 [Compound 1j] : 5.01

The value of Kb recorded for Cc1ccc(-c2ncccn2)c(C(=O)N2[C@H](CNc3ccc(C(F)(F)F)cn3)CC[C@@H]3C[C@@H]32)c1 [Compound 4a] when tested on human OX1 receptors (Homo sapiens, UniProt O43613) reads 2.51

----------
Item-by-item account of Kb
Target: human OX1 receptors (Homo sapiens)
Construct: expressed in transfected cells; host or cells: CHO cells
Sequence (O43613 1-425): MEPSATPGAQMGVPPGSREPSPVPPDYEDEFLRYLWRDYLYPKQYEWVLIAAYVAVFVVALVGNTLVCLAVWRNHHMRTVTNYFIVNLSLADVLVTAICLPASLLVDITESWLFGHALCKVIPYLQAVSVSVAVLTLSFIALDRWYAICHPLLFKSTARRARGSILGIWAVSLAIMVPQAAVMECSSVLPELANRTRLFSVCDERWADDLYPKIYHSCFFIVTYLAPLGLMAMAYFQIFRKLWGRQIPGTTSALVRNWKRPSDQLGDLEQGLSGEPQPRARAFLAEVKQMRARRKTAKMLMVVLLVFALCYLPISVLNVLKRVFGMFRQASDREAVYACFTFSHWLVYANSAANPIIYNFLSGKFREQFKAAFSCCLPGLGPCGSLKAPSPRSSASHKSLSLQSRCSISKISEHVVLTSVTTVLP
Experiment: antagonistic activity against human OX1 receptor, calcium fluorimetry (Fluo-4NW) in transfected CHO cells
Assay type: cell-based
Conditions: CHO cells transfected with human recombinant OX1, activated with orexin-A 3 nM; pKb = co-logarithm of apparent dissociation constant (modified Cheng Prusoff)
Write it as a number; the unit nM goes unstated.

// worked examples, Kb included
MOLECULE	Kb [nM]
O=C(c1cc(Cl)ccc1-c1ncccn1)N1[C@H](CNc2nccc(C(F)(F)F)n2)CC[C@@H]2C[C@@H]21 [Compound 4h]	31.6
Cc1ccc(-c2ncccn2)c(C(=O)N2[C@H](CNc3ccc(Cl)cn3)CC[C@@H]3C[C@@H]32)c1 [Compound 4g]	1.58

With those in mind, consider the next molecule.
Reported Kb ( O=C(c1cc(Cl)ccc1-c1ncccn1)N1[C@H](COc2ccc(F)cn2)CC[C@H]2C[C@H]21 [Compound 3c] ) = 12.6

----------
target: human OX1 receptors (Homo sapiens); construct: expressed in transfected cells; host or cells: CHO cells; assay: antagonistic activity against human OX1 receptor, calcium fluorimetry (Fluo-4NW) in transfected CHO cells; assay type: cell-based; conditions: CHO cells transfected with human recombinant OX1, activated with orexin-A 3 nM; pKb = co-logarithm of apparent dissociation constant (modified Cheng Prusoff)
TEST_READOUT: Kb (nM)
The reply should contain only the number, in nM.

Known results for molecules:
COMPOUND_STRUCTURE	Kb, nM
O=C(c1cc(Cl)ccc1-c1ncccn1)N1[C@H](COc2ccc(C(F)(F)F)cn2)CC[C@H]2C[C@H]21	1.26
N#Cc1ccc(-c2ncccn2)c(C(=O)N2[C@H](COc3ccc(F)cn3)CC[C@H]3C[C@H]32)c1	79.4
O=C(c1cc(Cl)ccc1-c1ncccn1)N1[C@H](CNc2ccc(Cl)cn2)CC[C@@H]2C[C@@H]21	3.98
Cc1ccc(-c2ncccn2)c(C(=O)N2[C@H](CNc3nccc(C(F)(F)F)n3)CC[C@@H]3C[C@@H]32)c1	25.1
O=C(c1cc(Cl)ccc1-c1ncccn1)N1[C@H](CNc2cc(C(F)(F)F)ccn2)CC[C@H]2C[C@H]21	1.58
N#Cc1ccc(-c2ncccn2)c(C(=O)N2[C@H](CNc3cc(C(F)(F)F)ccn3)CC[C@H]3C[C@H]32)c1	7.94

Now for another entry.
Kindly note the recorded Kb for N#Cc1ccc(-c2ncccn2)c(C(=O)N2[C@H](CNc3ccc(Cl)cn3)CC[C@H]3C[C@H]32)c1 , which is 1.58
